The origin of these recorded values is patent US6355669B1.

biological target: human RARβ (Homo sapiens); assay: RAR binding assay (inhibition of 3H-all-trans-retinoic acid binding), RAR-β; set-up: expressed in transfected cells; settings: nuclear extract of BHK cells expressing human RARβ, read-out: Receptor binding assay IC50 (nM) RAR-β
Sequence (P10826 whole entry): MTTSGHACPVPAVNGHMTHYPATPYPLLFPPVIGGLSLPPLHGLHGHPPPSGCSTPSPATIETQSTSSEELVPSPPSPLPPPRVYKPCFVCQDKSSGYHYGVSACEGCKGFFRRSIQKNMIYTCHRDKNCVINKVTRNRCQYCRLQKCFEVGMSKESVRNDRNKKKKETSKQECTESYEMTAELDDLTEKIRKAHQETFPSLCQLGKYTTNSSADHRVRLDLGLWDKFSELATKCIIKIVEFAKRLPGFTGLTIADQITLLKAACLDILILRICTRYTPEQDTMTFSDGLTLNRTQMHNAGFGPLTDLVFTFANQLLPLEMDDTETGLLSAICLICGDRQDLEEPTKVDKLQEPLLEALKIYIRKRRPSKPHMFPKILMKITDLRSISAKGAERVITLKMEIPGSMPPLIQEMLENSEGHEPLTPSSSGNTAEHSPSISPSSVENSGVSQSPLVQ
REPORTED_PROPERTY: IC50 (nM)

[[record]]
compound = "C[Si](C)(C)c1cc(C(=O)Nc2ccc(C(=O)O)cc2)cc([Si](C)(C)C)c1 [drawing 19]"
value_operator = ">"
value_reported = 500

[[record]]
compound = "O=C(O)c1ccc(-c2ccc(-c3cc4c(F)ccc(Cl)c4o3)[nH]2)cc1"
value_operator = ">"
value_reported = 500

[[record]]
compound = "CCc1ccc(C)c2cc(-c3ccc(-c4ccc(C(=O)O)cc4)[nH]3)oc12 [drawing 13]"
value_operator = "="
value_reported = 160

[[record]]
compound = "Cc1ccc(C)c2oc(-c3ccc(-c4ccc(C(=O)O)cc4)[nH]3)cc12 [drawing 8]"
value_operator = "="
value_reported = 340

[[record]]
compound = "Cc1ccc(C)c2c(F)c(-c3ccc(-c4ccc(C(=O)O)cc4)[nH]3)oc12 [drawing 12]"
value_operator = "="
value_reported = 49

[[record]]
compound = "CC1(C)CCC(C)(C)c2nc(-c3ccc(-c4ccc(C(=O)O)cc4)[nH]3)cnc21 [drawing 14]"
value_operator = "="
value_reported = 56

[[record]]
compound = "O=C(O)c1ccc(-c2ccc(-c3cc4c(C(F)(F)F)ccc(F)c4o3)[nH]2)cc1 [drawing 11]"
value_operator = "="
value_reported = 107

[[record]]
compound = "COCc1cc2c(cc1-c1ccc(-c3ccc(C(=O)O)cc3)[nH]1)C(C)(C)CCC2(C)C [drawing 18]"
value_operator = "="
value_reported = 230

[[record]]
compound = "CC1CCCN(C)c2ncc(-c3ccc(-c4ccc(C(=O)O)cc4)[nH]3)nc21 (stereo not drawn) [drawing 16]"
value_operator = "="
value_reported = 58

